# pEC50 per record follows
test.target: human PD-1 expressed on cells (UniProt Q15116 25-288)
Sequence (Q15116 25-288): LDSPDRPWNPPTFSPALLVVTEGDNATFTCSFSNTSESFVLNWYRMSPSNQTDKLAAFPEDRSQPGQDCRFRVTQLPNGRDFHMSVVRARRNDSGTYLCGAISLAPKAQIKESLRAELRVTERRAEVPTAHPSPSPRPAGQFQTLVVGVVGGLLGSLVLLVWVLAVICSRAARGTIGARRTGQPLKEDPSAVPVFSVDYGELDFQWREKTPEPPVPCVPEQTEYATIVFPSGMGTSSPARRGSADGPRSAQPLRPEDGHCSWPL
method.summary: FACS binding
Scale: pEC50 equals -log10([C]), with [C] in mol/L.

Previously resolved entries follow.
>>> numeric_readout("AS25156_HCAb (antibody, V domains shown) VH: EVQLVESGGGSVQSGGSLRLSCAVSGSGYSYSRGCFAWFQQRPGKEREGVAIINSDGHTRYSDSVQGRFIISQDKAKNTLYLQMNSLKPDDTAMYYCAYDCSQCYVLRDRLRLPDTFTDWGQGTQVTVSS")
8.04
>>> numeric_readout("AS25164_HCAb (antibody, V domains shown) VH: EVQLVESGGGSVQSGGSLRLSCAVSGSGYSYNRGCFAWFQQRPGKEREGVAIINSDGHTTYGDSVQGRFIISQDKAKNTLDLQMNSLKPDDTAMYYCAYDRNQCYVLRDRLRLPDTFTDWGQGTQVTVSS")
8.21

Consider the record given below.
Recall and state the measured pEC50 for AS25119_HCAb (antibody, V domains shown) VH: QVQLVESGGGSVQAGGPLRLTCAATGYSWRPDCMGWYRQAAEKEREGVAVIDADGITSYADAAKGRFTISRDNNNITLYLQMLKPDDTGMYVCVIGWRVSSGGNCQFNDYWGQGTQVTVSS .
8.48
